target: human activated tissue kallikrein (Homo sapiens, UniProt P06870); construct: 6xHis (C); experiment: Measurement of tissue kallikrein inhibitory activity; conditions: activated tissue kallikrein activity (initial rate) inhibited by 50%; substrate D-valyl-L-leucyl-L-arginyl-p-nitroanilide; 37° C.
Sequence (P06870 25-262): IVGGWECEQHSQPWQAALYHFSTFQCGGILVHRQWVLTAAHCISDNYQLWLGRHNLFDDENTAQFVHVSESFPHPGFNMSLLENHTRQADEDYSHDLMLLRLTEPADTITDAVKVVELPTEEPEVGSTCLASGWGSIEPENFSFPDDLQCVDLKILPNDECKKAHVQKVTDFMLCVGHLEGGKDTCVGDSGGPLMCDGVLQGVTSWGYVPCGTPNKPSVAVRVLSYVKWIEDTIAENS
quantity measured: IC50

Give the reported IC50 for this compound. `CC(C)[C@H](CNC(=O)CCc1c[nH]c2ccccc12)Nc1ccc(C(F)(F)F)cc1` 50.1 nM

Give the reported IC50 for this compound. `CC(C)[C@H](CC(=O)NCc1ccccc1)Nc1ccc(C(F)(F)F)cc1` 64.6 nM

Give the reported IC50 for this compound. `O=C(N[C@H]1CCN(c2ccc(C(F)(F)F)cc2)C1)C1CCN(c2ccncc2)CC1` 204 nM

Give the reported IC50 for this compound. `CC(C)[C@H](CNC(=O)c1cccc(N(C)C)c1)Nc1ccc(C(F)(F)F)cc1` 145 nM

Give the reported IC50 for this compound. `O=C(Cc1ccccc1)NC[C@H]1CCCN1c1ccc(C(F)(F)F)cc1` 41.7 nM

Give the reported IC50 for this compound. CCN1CCC(O)c2cc(C(F)(F)F)ccc21 (stereo not drawn) 251 nM

Give the reported IC50 for this compound. `CCNc1ccc(C(F)(F)F)cc1CO` 112 nM

Give the reported IC50 for this compound. `CC(C)[C@H](CCNC(=O)Cc1cccs1)Nc1ccc(C(F)(F)F)cc1` 107 nM

Give the reported IC50 for this compound. CCCCN1CCC(O)c2cc(C(F)(F)F)ccc21 (stereo not drawn) 257 nM

Measured values drawn from patent US7879863B2 for this set.
